# System: AncSZ
# assay.text: phosphorylation enrichment, bacterial display (enrichment ratio); higher = better substrate or ligand; peptides without Tyr show the background
I'd appreciate it if you could supply phosphorylation enrichment values for the items below.
Give the figure by itself; no unit, no explanation.

# input sequence: CTHDLYMFMRE [FGFR3_Y724_I726F] ; wanted: its phosphorylation enrichment
1.43

# input sequence: TGDRPYVCPFD [YY1_Y383] ; wanted: its phosphorylation enrichment
1.04

# input sequence: GIVKAYYVHAR [AIPL1_Y267_R270H] ; wanted: its phosphorylation enrichment
0.732

# input sequence: TSSSSYFDEPV [ARFGAP3_Y356] ; wanted: its phosphorylation enrichment
1.1

# input sequence: LNPLVYTLRNA [OR4C12_Y285_V283L] ; wanted: its phosphorylation enrichment
1.05

# input sequence: SREALYNETDP [CACNA1A_Y794_M797T] ; wanted: its phosphorylation enrichment
1.16

# input sequence: SVCPDYDLCSV [SQSTM1_Y148] ; wanted: its phosphorylation enrichment
1.65

# input sequence: QGCGIYKDYYR [PLA2G2D_Y82_S80G] ; wanted: its phosphorylation enrichment
1.69

# input sequence: KRLWDYGMSSS [F8_Y1728_E1723K] ; wanted: its phosphorylation enrichment
0.592

# input sequence: VTSLKYSTPPF [BRIP1_Y916_S919P_YF] ; wanted: its phosphorylation enrichment
0.607

# input sequence: GEVKAYGAGLL [TH_Y419] ; wanted: its phosphorylation enrichment
0.497

# input sequence: NSGFFYKTAEE [CCT6B_Y250] ; wanted: its phosphorylation enrichment
1.31

# input sequence: RTVPLYESPRK [DDB1_Y718] ; wanted: its phosphorylation enrichment
1.31

# input sequence: KVGNEYVTKGQ [MYH7_Y410] ; wanted: its phosphorylation enrichment
0.492

# input sequence: DRLASYPEKVR [KRT13_Y118_L119P] ; wanted: its phosphorylation enrichment
0.395

# input sequence: LYDPDYMKVIL [CYP4A22_Y104] ; wanted: its phosphorylation enrichment
1.96

# input sequence: ESSKAYERALS [TTC37_Y1074] ; wanted: its phosphorylation enrichment
0.77

# input sequence: NQKGKYFNVER [ANAPC4_Y469_R465Q] ; wanted: its phosphorylation enrichment
0.614

====

# study.target: EPHB1 (UniProt P54762)
# Sequence (P54762 whole entry, looked up): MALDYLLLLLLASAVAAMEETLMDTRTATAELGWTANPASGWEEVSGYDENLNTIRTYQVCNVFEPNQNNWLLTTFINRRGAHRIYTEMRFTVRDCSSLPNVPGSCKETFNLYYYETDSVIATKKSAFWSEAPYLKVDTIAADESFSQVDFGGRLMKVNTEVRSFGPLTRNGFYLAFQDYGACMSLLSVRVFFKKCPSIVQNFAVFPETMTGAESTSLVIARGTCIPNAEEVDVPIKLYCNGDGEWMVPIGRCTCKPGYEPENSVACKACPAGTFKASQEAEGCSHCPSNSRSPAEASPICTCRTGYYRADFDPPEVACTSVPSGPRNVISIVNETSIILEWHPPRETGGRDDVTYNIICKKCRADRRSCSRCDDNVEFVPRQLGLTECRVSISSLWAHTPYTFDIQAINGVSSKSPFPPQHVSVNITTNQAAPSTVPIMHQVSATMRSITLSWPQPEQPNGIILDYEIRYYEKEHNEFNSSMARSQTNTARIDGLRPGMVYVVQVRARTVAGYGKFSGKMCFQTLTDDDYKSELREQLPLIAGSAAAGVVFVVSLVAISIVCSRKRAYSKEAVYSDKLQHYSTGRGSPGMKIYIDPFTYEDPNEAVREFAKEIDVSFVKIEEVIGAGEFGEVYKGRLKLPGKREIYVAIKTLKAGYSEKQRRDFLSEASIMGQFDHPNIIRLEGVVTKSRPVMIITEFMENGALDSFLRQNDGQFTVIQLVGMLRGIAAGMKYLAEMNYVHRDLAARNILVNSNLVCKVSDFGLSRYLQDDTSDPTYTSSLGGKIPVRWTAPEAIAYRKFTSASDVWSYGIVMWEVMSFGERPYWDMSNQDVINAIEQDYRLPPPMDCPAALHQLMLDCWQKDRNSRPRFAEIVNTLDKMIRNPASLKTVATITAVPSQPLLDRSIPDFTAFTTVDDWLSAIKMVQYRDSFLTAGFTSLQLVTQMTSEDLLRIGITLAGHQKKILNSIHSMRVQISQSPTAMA
# assay.text: phosphorylation enrichment, bacterial display (enrichment ratio); higher = better substrate or ligand; peptides without Tyr show the background
Note: every record was labeled by where its phosphorylation enrichment sits among low band (below 0.5), middle band (0.5 to below 1), high band (1 or more)

Tag the class for SLYPGYNFRYA [P2RX7_Y291]
low band

Tag the class for `KACNPYKPPGP`
low band

Tag the class for ITVPAYFNDLQ [HSPA9_Y196_S200L]
middle band

Tag the class for VSRGRYRPEEC [B4GALT4_Y113_Q116E]
low band

Tag the class for KLPFLYDDPFS [GPX2_Y127_P126L_YF]
high band

Tag the class for HGEAFYSEVKP [PAK5_Y182_YF]
high band

Tag the class for EERNPYYSSAR [MCCC2_Y520_G517R]
low band

Tag the class for ENFSEYQEIAV [HEMGN_Y150]
high band

Tag the class for STEAIYWRFSK [SH3PXD2B_Y42_R43W_YF]
high band

Tag the class for KLFFHYNPKLC [INSR_Y457]
middle band

Tag the class for FIGVTYKNKED [PDGFRA_Y993_E996K_YF]
low band

Tag the class for LHRHAYPEQRQ [DPPA2_Y127]
low band

Tag the class for DASENYFVMDS [TMEM240_Y77_T80M]
high band

====

# study.target: Grb2 SH2 (UniProt P62993)
# Sequence (P62993 whole entry, looked up): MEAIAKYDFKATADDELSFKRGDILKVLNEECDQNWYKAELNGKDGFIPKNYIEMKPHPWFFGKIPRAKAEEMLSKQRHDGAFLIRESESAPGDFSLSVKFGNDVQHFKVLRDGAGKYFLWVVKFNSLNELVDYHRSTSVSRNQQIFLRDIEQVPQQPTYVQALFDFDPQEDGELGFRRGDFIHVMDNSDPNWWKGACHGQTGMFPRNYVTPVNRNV
# assay.text: SH2 binding enrichment of the phosphorylated peptide, bacterial display (enrichment ratio); higher = better substrate or ligand; peptides without Tyr show the background
measured.quantity: SH2 binding enrichment
Give the figure by itself; no unit, no explanation.

# input sequence: ADARMYGDLPW [PLP1_Y207_V209D] ; wanted: its SH2 binding enrichment
0.868

# input sequence: LGMSQYFRLFN [CPT2_Y217_D213G] ; wanted: its SH2 binding enrichment
1.06

# input sequence: YETSHYPASPD [CTNND2_Y1217] ; wanted: its SH2 binding enrichment
0.739

# input sequence: PQGVRYIYTID [DCX_Y103] ; wanted: its SH2 binding enrichment
0.772

# input sequence: HGEAFYSEVKP [PAK5_Y182_YF] ; wanted: its SH2 binding enrichment
0.887

# input sequence: SSKILYHIIKG [CDH17_Y489] ; wanted: its SH2 binding enrichment
0.958

# input sequence: QHVPDYRQNGY [PCDHGA1_Y890_V894G] ; wanted: its SH2 binding enrichment
0.889

# input sequence: LIYTNYEVGKD [GSTP1_Y112_A114V] ; wanted: its SH2 binding enrichment
1.12

# input sequence: HFGCVYFGTLL [MET_Y1093_H1094Y_YF] ; wanted: its SH2 binding enrichment
0.857

# input sequence: HNELFYEAAEH [VANGL1_Y345_E347A_YF] ; wanted: its SH2 binding enrichment
0.901

# input sequence: YGAHNHHPLPV [OAT_Y55_Y55H] ; wanted: its SH2 binding enrichment
0.963

# input sequence: RLAKTYKTTLE [ALB_Y377_E378K] ; wanted: its SH2 binding enrichment
1.01

# input sequence: NDKLCYEVSSP [CDH13_Y66_R65C] ; wanted: its SH2 binding enrichment
0.569

# input sequence: DTNIAYWLHPR [POMT1_Y581] ; wanted: its SH2 binding enrichment
1.03

# input sequence: QDDFSYPSRQM [LDLR_Y847_G844D_YF] ; wanted: its SH2 binding enrichment
0.851

# input sequence: RLGNQHVNVMN [SLC3A1_Y461_Y461H] ; wanted: its SH2 binding enrichment
0.987

# input sequence: VTSLKYSTPPF [BRIP1_Y916_S919P_YF] ; wanted: its SH2 binding enrichment
0.929

# input sequence: ILDEAYVMAGA [ERBB2_Y772_V777A] ; wanted: its SH2 binding enrichment
0.736

# input sequence: LFLALYTGLVR [PIGB_Y402_H407R] ; wanted: its SH2 binding enrichment
1.53

# input sequence: GREFIYVDPMQ [PDGFRA_Y574_H570R_YF] ; wanted: its SH2 binding enrichment
1.08

# input sequence: QRALLYEDALF [UNC13D_Y56_YF] ; wanted: its SH2 binding enrichment
0.828

# input sequence: TEQDPYNNIVR [MMUT_Y364] ; wanted: its SH2 binding enrichment
0.857

# input sequence: ISISPYPAILH [IFT80_Y588_T586S] ; wanted: its SH2 binding enrichment
0.724

# input sequence: LLNPSYNLPLD [TOM1L1_Y109_R108S] ; wanted: its SH2 binding enrichment
0.685

# input sequence: ICRWVYPLTPE [EIF2B5_Y319_R315C] ; wanted: its SH2 binding enrichment
0.883

# input sequence: VHNLDYYKMTT [FGFR3_Y647_K650M] ; wanted: its SH2 binding enrichment
0.731

# input sequence: KLGDVYVNVAF [PGK1_Y161_D164V] ; wanted: its SH2 binding enrichment
1.16

# input sequence: TLNVRHESVQA [CEACAM7_Y236_Y236H] ; wanted: its SH2 binding enrichment
0.978

# input sequence: RRSQSYIPTSG [PLEKHA2_Y185] ; wanted: its SH2 binding enrichment
0.941

# input sequence: CTTIHSNYMCN [TP53_Y234_Y234S] ; wanted: its SH2 binding enrichment
1.1

# input sequence: NYYDTYIKTCL [IQGAP2_Y1445] ; wanted: its SH2 binding enrichment
0.841

# input sequence: ADFFDYGRGLS [KHDRBS3_Y304_H306R_YF] ; wanted: its SH2 binding enrichment
0.82

# input sequence: EVASVYESYQP [MAVS_Y92_Q93E] ; wanted: its SH2 binding enrichment
0.919

# input sequence: KNKNRYKNILP [PTPN11_Y279] ; wanted: its SH2 binding enrichment
1.05

# input sequence: GFSDPYVKASL [SYT3_Y470] ; wanted: its SH2 binding enrichment
0.796

# input sequence: IYRASYYRRGD [LTK_Y676] ; wanted: its SH2 binding enrichment
0.728

# input sequence: SIKDKYLTALY [KCNH2_Y611_V612L] ; wanted: its SH2 binding enrichment
0.968

# input sequence: SVTCTYSSALN [TP53_Y126_P128S] ; wanted: its SH2 binding enrichment
0.78

# input sequence: KVGNEYITKGQ [MYH7_Y410_V411I] ; wanted: its SH2 binding enrichment
0.896

# input sequence: RFVTRSIFNRE [HLA-DQB1_Y62_Y62S_YF] ; wanted: its SH2 binding enrichment
0.72

# input sequence: PEADKYCLTFA [FGG_Y300_R301C_YF] ; wanted: its SH2 binding enrichment
0.757

# input sequence: NQILPYIKELV [PPP2R1B_Y341] ; wanted: its SH2 binding enrichment
1.01

# input sequence: LGNIVYSSLCG [BCOR_Y90_P85L] ; wanted: its SH2 binding enrichment
0.778

# input sequence: SAEEDYKADAK [KCNT1_Y876_M877K] ; wanted: its SH2 binding enrichment
0.874

# input sequence: YVGGFYGGCNE [CTSC_Y352] ; wanted: its SH2 binding enrichment
0.77

# input sequence: SEHLTYLEFKS [RASGRP1_Y215] ; wanted: its SH2 binding enrichment
0.716
